B1: mRNA-splicing (parent)
chain: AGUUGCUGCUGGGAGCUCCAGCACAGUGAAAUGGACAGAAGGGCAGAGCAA

- Variants of: B1
- PROCEDURE TEXT: exon inclusion enrichment index; higher = more inclusion; WT1 exon 5 minigene, HEK293
Documented exon inclusion enrichment index across a set of variants
PROPERTY LABEL: exon inclusion enrichment index

>>> df
                     mutation_list  endpoint_value
 0           G5U G8U C9U A40C G41A          0.0439
 1       G5A C6G U7G C9A C36U A37U         0.00084
 2      G5C C6G U7C U10C C19U A20C            3.09
 3           G5A U7C G8A U10C A31U            2.07
 4        U3G U4G G5C C6G U7C U10C           0.836
 5   G5A C6U U7A G8U C9A A20G G21U          0.0713
 6                G5U G8U C9U C24U          0.0331
 7           C6A U7C C9A U10C A37U            2.49
 8       G5A C6G U7G C9A A14U G15U        0.000762
 9  G5C C6A U7C G8A U10A G34U A35G          0.0186
10      G5C C6G U7C U10C C16A U17A            4.02
11                    C6A U7A U10G            0.84
12       G5C C6A U7C G8A U10A C44U          0.0254
13      G5A U7C G8A U10C A20U G21U            1.69
14      G5C C6G U7C U10C A30U A31C            3.11
15       G5C C6U G8C C9U U10C G34U           0.391
16      G5C C6G U7C U10C A30G A31C           0.674
17                 G2U G5U G8U C9U           0.329
18                     C6A U7G C9A           0.123
19  G5C C6A U7C G8A U10A A29U A30G           0.125
20        G5A C6U U7A G8U C9G U10G          0.0235
21         G2A G5A C6U U7A G8U C9A           0.211
22                       A25G G26C           0.272
23           C6A U7A C9A U10A G34C           0.179
24  G5C C6A U7C G8A U10A U17G C18U          0.0504
25  G5C C6A U7C G8A U10A C16G U17A           0.181
26                       A45G G46C           0.331
27       G5A C6G U7G C9A G13C A14G         0.00374
28           G5U G8U C9U G28A A29U          0.0186
29        G2C U3C G5C C6G U7C U10C            3.45
30      G5A U7C G8A U10C C22G A23G             1.4
31           G5U G8U C9U C18G C19G           0.195
32      G5A U7C G8A U10C A29U A30U           0.907
33                       C19U A20G           0.684
34       G5A C6G U7G C9A G11C G12A        0.000679
35           C6A U7A C9A U10A A31C           0.898
36        G2A U3G G5C C6G U7C U10C            2.14
37       G5C C6A U7C G8A U10A A20G           0.306
38       G5A C6G U7G C9A C44A A45C         0.00399
39       G5A C6G U7G C9A G26A U27C          0.0139
40   G5A C6U U7A G8U C9A C22G A23U         0.00095
41      G5C C6G U7C U10C G33U G34U           0.875
42      C6A U7A C9A U10A G21U C22G           0.565
43                         G8A C9G          0.0723
44       G5A C6G U7G C9A G28U A29G         0.00238
45                       G28C A29C           0.118

# credit: the RNAGym collection of RNA variant scans (doi:10.1101/gr.219683.116)
